The reader will find reported growth values listed item by item below.
- System: SF-295 CNS
- protocolDetails: NCI-60 one-dose screen, 48 h (100 = growth as untreated, 0 = no growth, -100 = all killed)
- details: 10 µM unless noted
About 83,000 compounds went through this panel and 20% of them were active in at least one assay; those are over-represented in the sample as a whole.

compound	unitString	growth
COc1ccc(S(=O)(=O)N2CCN(C)CC2)cc1NC(=O)c1[nH]c(C)c2c1CCCCC2=O	%	54.7
CCC#CC[C@H](O)C/C=C1/C(=O)C=C[C@@H]1C/C=C\CCCC(=O)OC	%	-25.6
O=C1c2cccc3cccc(c23)C(=O)N1CCCCCN1CCN(CCCCCOc2ccc(-c3nc4ccc(N5CCOCC5)cc4[nH]3)cc2)CC1	%	16.3
CC(=O)O[C@H]1C(=O)[C@@]2(C)[C@H]([C@H](OC(=O)c3ccccc3)[C@]3(O)C[C@H](OC(=O)[C@H](OC(=O)CCC(=O)OC4CCC(S/N=C(N)/N=C(\N)N(C)C)CC4)[C@@H](NC(=O)c4ccccc4)c4ccccc4)C(C)=C1C3(C)C)[C@]1(OC(C)=O)CO[C@@H]1C[C@@H]2O (some centres undefined)	%	-10.5

* * *

- Tested on: NCI/ADR-RES ovarian
- protocolDetails: NCI-60 one-dose screen, 48 h (100 = growth as untreated, 0 = no growth, -100 = all killed)
- details: 10 µM unless noted
The panel holds about 83,000 compounds, 20% with a hit somewhere; the sample as a whole holds those more often.
recordedMetric: growth (%)

                                    compound  readoutvalue
 0  O=c1c(F)cn(Cc2ccccc2CCl)c(=O)n1Cc1ccccc1CCl         -9.91
 1  Cc1ccc(C(SCC(N)C(=O)O)(c2ccccc2)c2ccc(C)cc2)cc1 (stereo not drawn)          7.01
 2  CCOC(=O)c1c(C(=O)OCC)c2cc(-c3ccn4c(C(=O)c5ccccc5)c(C(=O)OCC)c(C(=O)OCC)c4c3)ccn2c1C(=O)c1ccccc1          89.5
 3  CN(C)S(=O)(=O)c1ccc(S(=O)(=O)Nc2cccc(Cl)c2N2CCCCC2)cc1          76.6
 4  C=CC(COC(c1ccccc1)(c1ccccc1)c1ccccc1)N(CC)CC (stereo not drawn)          62.4
 5  OCC(O)c1nc2ccc3[nH]ncc3c2c2c1CCCC2 (stereo not drawn)          9.22
 6     Nc1ccc(-c2cc3c(NCc4ccccc4)ncnc3s2)cc1          80.7
 7  O=C1/C(=C/c2ccc(OCCCOc3ccc(Cl)cc3)cc2)N=C2SCCCN12          67.4
 8   COc1cc2nc(N3CCCC3)nc(NCc3ccccc3)c2cc1OC          72.4
 9  O=C(C(=O)c1ccc2c(c1)OCO2)c1ccc2c(c1)OCO2           117
10  CCN1CCN(c2nc(NCCCNc3ccnc4cc(Cl)ccc34)c3ccccc3n2)CC1          92.6
11  COc1ccc(C2CC(c3ccc4ccccc4c3)=NN2/C=C2\SC(=S)N(NC(=O)Cc3ccccc3Nc3c(Cl)cccc3Cl)C2=O)cc1 (stereo not drawn)          9.39
12  O=C(COc1cccc(/C=C2\CSc3ccccc3C2=O)c1)Nc1nccs1          54.8
13  C=C(C)[C@@H]1CC[C@]2(C(=O)OC)CC[C@]3(C)[C@H](CC[C@@H]4[C@@]5(C)C/C(=C/c6cccc(I)c6)C(=O)C(C)(C)[C@@H]5CC[C@]43C)[C@@H]12          94.1
14  Fc1ccc2[nH]cc(SSc3c[nH]c4ccc(F)cc34)c2c1          17.4
15   COc1ccc(C(=O)c2sc3nc(C)cc(C)c3c2N)cc1OC          90.2
16  COc1cc(-c2nn(-c3ccc(C(=O)O)cc3)cc2C(=O)O)ccc1O          29.7
17  CSc1nc(NCc2ccccc2)c(C#N)c(-c2cccc([N+](=O)[O-])c2)n1          95.2
18  CCNC(=O)Oc1ccc(/C(=C(\C)c2ccc(Cl)cc2)c2ccc(OCCN(CC)CC)cc2)cc1          57.3
19  COc1cc(/C=C/C(=O)c2ccc(O)c(CN3CCN(c4cc5c(cc4F)c(=O)c(C(=O)O)cn5C4CC4)CC3)c2)cc(OC)c1OC          54.6
20  CCC([N+](=O)[O-])S(=O)(=O)c1ccc(C)cc1 (stereo not drawn)          92.3
21  CC[N+](CC)=c1sc2c(s1)C(c1ccc(Cl)cc1)Oc1ccc(Cl)cc1-2 (stereo not drawn)          88.9
22  C=C(C)[C@@H]1CC[C@]2(C(=O)OC)CC[C@]3(C)[C@H](CC[C@@H]4[C@@]5(C)C/C(=C/c6ccc(OC)cc6)C(=O)C(C)(C)[C@@H]5CC[C@]43C)[C@@H]12          93.2
23     O=[N+]([O-])c1ccc2c(c1)Cc1cc(F)ccc1-2           106
24  Cc1cc(N[C@@H]2CCC[C@H](Nc3ccnc4cc(Cl)ccc34)C2)nc(N2CCCCCC2)n1         -39.8
25  CC(=O)OCCC/C(=C/c1cc2ccccc2c2ccccc12)[N+](=O)[O-]         -29.4
26  O=C1c2cc3c(cc2-c2c1c1ccc(Cl)cc1c(=O)n2CCCN1CCOCC1)OCO3          45.9
27  NC(=NC1C2CC3CC(C2)CC1C3)Nc1ccc(I)cc1 (stereo not drawn)          49.5
